From: patent US20240025949A1

Measurement Target: rat angiotensin 2 type 1 receptor (rat) (UniProt P25095)
Sequence (P25095 whole entry): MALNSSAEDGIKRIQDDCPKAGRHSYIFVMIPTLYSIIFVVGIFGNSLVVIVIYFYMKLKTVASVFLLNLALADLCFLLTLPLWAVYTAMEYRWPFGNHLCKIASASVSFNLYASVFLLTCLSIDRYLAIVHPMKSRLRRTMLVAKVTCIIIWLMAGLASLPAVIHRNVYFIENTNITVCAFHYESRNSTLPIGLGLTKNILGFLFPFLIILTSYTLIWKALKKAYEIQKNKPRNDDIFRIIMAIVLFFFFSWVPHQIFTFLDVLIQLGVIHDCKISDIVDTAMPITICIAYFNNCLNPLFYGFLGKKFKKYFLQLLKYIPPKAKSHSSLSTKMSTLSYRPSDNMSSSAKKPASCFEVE
Assay Protocol: cell-based or functional assay
Measurement Kind: b-arrestin2 Max (%)

Consider the reported b-arrestin2 Max for these binders:
>  <Binder>
RVYEHPI (N-terminal Sar; C-terminal acid) [SEQ ID NO: 16 (Sar-Arg-Val-Tyr-Glu-His-Pro-Ile-OH)]

>  <Unit Info>
%

>  <b-arrestin2 Max>
76.9

$$$$
>  <Binder>
RVYKHPA (N-terminal Sar; C-terminal acid) [SEQ ID NO: 23 (Sar-Arg-Val-Tyr-Lys-His-Pro-Ala-OH)]

>  <Unit Info>
%

>  <b-arrestin2 Max>
84.9

$$$$
>  <Binder>
RVYEHPA (N-terminal Sar; C-terminal acid) [SEQ ID NO: 20 (Sar-Arg-Val-Tyr-Glu-His-Pro-Ala-OH)]

>  <Unit Info>
%

>  <b-arrestin2 Max>
86.6

$$$$
>  <Binder>
ARVYIHPA (N-methyl residue; C-terminal acid) [SEQ ID NO: 34 (NMAla-Arg-Val-Tyr-Ile-His-Pro-Ala-OH)]

>  <Unit Info>
%

>  <b-arrestin2 Max>
81.7

$$$$
>  <Binder>
ERVYYHP (D-residue; C-terminal amide) [SEQ ID NO: 60 (D-Glu-Arg-Val-Tyr-Tyr-His-Pro-NH2)]

>  <Unit Info>
%

>  <b-arrestin2 Max>
79.3

$$$$

I = RVYYHPA (N-terminal Sar; C-terminal acid) [SEQ ID NO: 19 (Sar-Arg-Val-Tyr-Tyr-His-Pro-Ala-OH)]
II = FVYIHPFVYIHPFVYIHP (cyclic) [SEQ ID NO: 37 (Cyclo(Phe-Val-Tyr-Ile-His-Pro-Phe-Val-Tyr-Ile-His-Pro-Phe-Val-Tyr-Ile-His-Pro))]
III = RVYVHPI (N-terminal Sar; C-terminal amide) [SEQ ID NO: 12 (Sar-Arg-Val-Tyr-Val-His-Pro-Ile-NH2)]
## Task Put the entries in order of b-arrestin2 Max, starting with the largest number. Give your ranking as a list of the labels in the requested order.
## Result I, II, III
